These entries and their values trace back to patent US20220380445A1.

# STUDY_TARGET: rat serum albumin (rat, UniProt P02770 25-608)
# Sequence (P02770 25-608 limits assumed): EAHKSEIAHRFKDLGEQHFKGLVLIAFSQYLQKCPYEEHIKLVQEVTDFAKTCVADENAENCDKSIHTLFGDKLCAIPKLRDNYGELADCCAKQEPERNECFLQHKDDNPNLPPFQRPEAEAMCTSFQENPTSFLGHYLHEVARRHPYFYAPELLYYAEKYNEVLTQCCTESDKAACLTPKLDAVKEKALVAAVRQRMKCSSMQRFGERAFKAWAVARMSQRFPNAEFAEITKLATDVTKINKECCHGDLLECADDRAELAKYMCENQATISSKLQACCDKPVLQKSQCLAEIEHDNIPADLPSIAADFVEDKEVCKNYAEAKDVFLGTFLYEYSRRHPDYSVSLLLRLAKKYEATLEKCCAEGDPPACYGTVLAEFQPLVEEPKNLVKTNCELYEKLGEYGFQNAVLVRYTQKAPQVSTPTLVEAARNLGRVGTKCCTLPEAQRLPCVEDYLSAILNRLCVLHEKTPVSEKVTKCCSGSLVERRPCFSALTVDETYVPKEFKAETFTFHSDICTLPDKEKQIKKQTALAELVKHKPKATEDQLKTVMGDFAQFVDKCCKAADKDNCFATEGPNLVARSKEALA
# MEASUREMENT_PROTOCOL: ProteOn kinetic analysis
OBSERVABLE: Kd (nM)
A number alone suffices; assume nM.

Answered cases to consult:
* SEQ ID NO 127 (VHH, also called T at position 30) VHH: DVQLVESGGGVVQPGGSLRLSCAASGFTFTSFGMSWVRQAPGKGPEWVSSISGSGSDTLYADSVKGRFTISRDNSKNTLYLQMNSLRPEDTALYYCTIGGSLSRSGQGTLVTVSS | 490
* SEQ ID NO 145 (VHH, also called T at position 30) VHH: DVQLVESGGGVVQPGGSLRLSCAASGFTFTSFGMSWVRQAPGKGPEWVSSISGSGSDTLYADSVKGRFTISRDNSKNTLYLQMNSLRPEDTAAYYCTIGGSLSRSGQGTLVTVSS | 540

-- ask Field request: Kd | item: SEQ ID NO 10 (VHH, also called R at position 30) VHH: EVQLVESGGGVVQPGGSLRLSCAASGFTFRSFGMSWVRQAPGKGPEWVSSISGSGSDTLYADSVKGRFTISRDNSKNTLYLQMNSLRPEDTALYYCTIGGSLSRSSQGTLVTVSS
-- reply 180

-- ask Field request: Kd | item: SEQ ID NO 129 (VHH, also called T at position 30) VHH: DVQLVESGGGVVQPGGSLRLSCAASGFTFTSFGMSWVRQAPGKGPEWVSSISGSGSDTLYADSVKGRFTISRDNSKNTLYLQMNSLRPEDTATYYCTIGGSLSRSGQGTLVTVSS
-- reply 490
